molecular target: S2 subunit of the SARS-CoV-2 spike protein, WA01/2020 strain (SARS-CoV-2, WA01/2020 strain, UniProt P0DTC2 686-1213); test: ELISA on S2 (S2 Binding EC50)
pEC50: −log10 of the molar value.

binder	pEC50
antibody 1815 (antibody, V domains shown) VH: QVQLQESGPGLVKPSETLSLTCSVSGGSINYYYWSWIRKSPGKGLEWIGFIYSSGTTNYNPSLKSRVSMSIGTSKRQFSLKLSSVTAADSAVYYCARHSRSCTNGVCQTYYYYALDVWGHGTTVTVSS VL: QSVLTQPPSVSGAPGQRVTISCTGSSSNIGAGYDVHWYQQLPGTAPKLLIYANTHRPSGVPDRFSASKSGTSASLAIAGLQAEDEGDYYCQSYDGSLSESAVFGGGTRLTVL	9.90
antibody 1871 (antibody, V domains shown) VH: EVQLVESGGGLVKPGGSLRLSCVASGFSFSIYSMNWVRQAPGKGLEWVSYISSSSSYKYYADSVKGRFSVSRDNAKNSLYLQLNGLRAEDTAVYYCARDGYCPKGVCTYYGMDVWGQGTTVTVSA VL: EIVMTQSPATLSVSPGERVTLSCRASQSVRSRLAWFQQKPGQAPRLLIYDASIRATGIPARFSGSGSGTEFTLIISSLQSEDFAVYYCQQYDNWPPAYTFGQGTKLEIK	9.99
antibody 1872 (antibody, V domains shown) VH: EVQLVESGGGLVKPGGSLRLSCAASGFSFSLYTMNWVRQAPGKGLEWVSYISSSSSYRYYADSVKGRFSVSRDNAKNALYLQMNGLRAEDTAVYYCARDGYCPRGVCTYYGMDVWGQGTTVTVSA VL: EIVMTQSPATLSVSPGERATLSCRASQSVGSRLAWYQQKPGQAPRLLIYDATIRATGIPARFSGSGSGTDFTLTISGLQSEDFAVYYCQRYNNWPPAYTFGQGTKLEIK	10.15
